Species on record: Homo sapiens
experiment-notes: Selectivity for human 5HT3 receptor over human alpha7 nAChR
quantity-kind: Ratio

> print(dat)
                                   molecule  observed.value
1  CN1C(=O)[C@@H](CN2CCCCC2)C[C@H]1C#Cc1ccc2c(ccn2C)c1 (relative stereo)            3220
2  CN1C(=O)[C@@H](CN2CCCCC2)C[C@H]1C#Cc1ccccc1 (relative stereo)           26400
3  CN1C(=O)[C@@H](CN2CCCCC2)C[C@H]1C#Cc1ccc2c(c1)CCO2 (relative stereo)            5390
4  CN1C(=O)[C@@H](CN2CCCCC2)C[C@H]1C#Cc1ccc2occc2c1 (relative stereo)           17000
5  C[C@H](OC(=O)N[C@@H]1CN2CCC1CC2)c1ccccc1F             200

====

Recorded Ratio, one value per entry.
Species on record: Homo sapiens
experiment-notes: Selectivity for human alpha4beta2 nAChR over human alpha7 nAChR
quantity-kind: Ratio

> print(dat)
                                   compound  observed.value
1  CN1C(=O)[C@@H](CN2CCCCC2)C[C@H]1C#Cc1ccc2c(ccn2C)c1 (relative stereo)             232
2  CN1C(=O)[C@@H](CN2CCCCC2)C[C@H]1C#Cc1ccccc1 (relative stereo)             820
3  CN1C(=O)[C@@H](CN2CCCCC2)C[C@H]1C#Cc1ccc2c(c1)CCO2 (relative stereo)            1260
4  C[C@H](OC(=O)N[C@@H]1CN2CCC1CC2)c1ccccc1F             251
5  CN1C(=O)[C@@H](CN2CCCCC2)C[C@H]1C#Cc1ccc2occc2c1 (relative stereo)             660

====

Organism: Homo sapiens
experiment-notes: Selectivity for human alpha-1-beta-1-gamma-delta nAChR over human alpha7 nAChR
Here, each record is paired with measured Ratio data.
quantity-kind: Ratio

> print(dat)
                                   compound  observed.value
1  CN1C(=O)[C@@H](CN2CCCCC2)C[C@H]1C#Cc1ccc2c(c1)CCO2 (relative stereo)             773
2  CN1C(=O)[C@@H](CN2CCCCC2)C[C@H]1C#Cc1ccccc1 (relative stereo)            1300
3  CN1C(=O)[C@@H](CN2CCCCC2)C[C@H]1C#Cc1ccc2c(ccn2C)c1 (relative stereo)             431
4  CN1C(=O)[C@@H](CN2CCCCC2)C[C@H]1C#Cc1ccc2occc2c1 (relative stereo)           17000
5  C[C@H](OC(=O)N[C@@H]1CN2CCC1CC2)c1ccccc1F            1260

====

system-under-test: 5-hydroxytryptamine receptor 3A (Homo sapiens, UniProt P46098)
Sequence (P46098 whole entry): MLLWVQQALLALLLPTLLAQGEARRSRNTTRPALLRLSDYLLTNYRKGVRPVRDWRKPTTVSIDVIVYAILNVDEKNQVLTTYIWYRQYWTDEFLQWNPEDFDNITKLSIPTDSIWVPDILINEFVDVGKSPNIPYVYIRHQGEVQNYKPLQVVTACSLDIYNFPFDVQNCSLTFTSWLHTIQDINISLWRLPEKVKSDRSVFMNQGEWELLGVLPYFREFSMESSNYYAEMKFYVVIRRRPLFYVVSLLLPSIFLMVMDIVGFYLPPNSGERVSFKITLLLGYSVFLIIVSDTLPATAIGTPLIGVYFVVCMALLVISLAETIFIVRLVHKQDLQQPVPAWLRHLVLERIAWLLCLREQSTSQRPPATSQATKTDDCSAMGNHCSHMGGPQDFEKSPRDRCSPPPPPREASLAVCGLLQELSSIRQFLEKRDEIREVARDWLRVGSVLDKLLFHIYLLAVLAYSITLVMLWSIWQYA
experiment-notes: Antagonist activity at human 5HT3 receptor by calcium influx assay
quantity-kind: log10(IC50) (log10 of the value in µM)

> print(dat)
                                   molecule  quantity.kind  observed.value
1  CN1C(=O)[C@@H](CN2CCCCC2)C[C@H]1C#Cc1ccc2occc2c1 (relative stereo)    log10(IC50)            2.00
2  C[C@H](OC(=O)N[C@@H]1CN2CCC1CC2)c1ccccc1F    log10(IC50)            1.30
3  CN1C(=O)[C@@H](CN2CCCCC2)C[C@H]1C#Cc1ccc2c(c1)CCO2 (relative stereo)    log10(IC50)            1.70
4  CN1C(=O)[C@@H](CN2CCCCC2)C[C@H]1C#Cc1ccccc1 (relative stereo)    log10(IC50)            2.40
5  CN1C(=O)[C@@H](CN2CCCCC2)C[C@H]1C#Cc1ccc2c(ccn2C)c1 (relative stereo)    log10(IC50)            1.40

====

Organism: Homo sapiens
experiment-notes: Selectivity for human alpha3beta4 nAChR over human alpha7 nAChR
quantity-kind: Ratio

> print(dat)
                                   compound  observed.value
1  CN1C(=O)[C@@H](CN2CCCCC2)C[C@H]1c1cnc(-c2ccccc2Cl)s1 (relative stereo)              14
2  CN1C(=O)[C@@H](CN2CCCCC2)C[C@H]1C#Cc1ccccc1 (relative stereo)             126
3  C[C@H](OC(=O)N[C@@H]1CN2CCC1CC2)c1ccccc1F             200
4  CN1C(=O)[C@@H](CN2CCCCC2)C[C@H]1c1ccc(-c2ccccc2Cl)s1 (relative stereo)              26
5  CN1C(=O)[C@@H](CN2CCCCC2)C[C@H]1C#Cc1ccc2c(c1)CCO2 (relative stereo)             154

====

experiment-notes: Protein binding in human plasma assessed as fraction unbound
Assay type: ADME, cell-free
quantity-kind: fraction unbound

> print(dat)
                                   molecule  observed.value
1  CN1C(=O)[C@@H](CN2CCCCC2)C[C@H]1C#Cc1ccccc1 (relative stereo)            0.17

====

system-under-test: Acetylcholine receptor; alpha1/beta1/delta/gamma (Homo sapiens, UniProt P02708+P07510+P11230+Q07001)
Sequence (P02708 whole entry): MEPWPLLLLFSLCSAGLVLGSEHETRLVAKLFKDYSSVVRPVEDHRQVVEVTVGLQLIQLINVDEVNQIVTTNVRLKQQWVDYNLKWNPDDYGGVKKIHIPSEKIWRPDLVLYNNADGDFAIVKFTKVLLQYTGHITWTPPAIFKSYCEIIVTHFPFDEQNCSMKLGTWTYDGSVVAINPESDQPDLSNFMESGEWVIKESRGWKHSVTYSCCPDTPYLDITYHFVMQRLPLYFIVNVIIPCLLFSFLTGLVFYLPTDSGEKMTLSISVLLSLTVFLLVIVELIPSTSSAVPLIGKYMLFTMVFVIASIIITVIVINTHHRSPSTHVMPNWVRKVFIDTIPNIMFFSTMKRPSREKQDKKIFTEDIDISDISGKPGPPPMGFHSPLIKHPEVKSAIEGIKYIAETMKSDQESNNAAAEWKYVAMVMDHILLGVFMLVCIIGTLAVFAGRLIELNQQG
Sequence (P07510 whole entry): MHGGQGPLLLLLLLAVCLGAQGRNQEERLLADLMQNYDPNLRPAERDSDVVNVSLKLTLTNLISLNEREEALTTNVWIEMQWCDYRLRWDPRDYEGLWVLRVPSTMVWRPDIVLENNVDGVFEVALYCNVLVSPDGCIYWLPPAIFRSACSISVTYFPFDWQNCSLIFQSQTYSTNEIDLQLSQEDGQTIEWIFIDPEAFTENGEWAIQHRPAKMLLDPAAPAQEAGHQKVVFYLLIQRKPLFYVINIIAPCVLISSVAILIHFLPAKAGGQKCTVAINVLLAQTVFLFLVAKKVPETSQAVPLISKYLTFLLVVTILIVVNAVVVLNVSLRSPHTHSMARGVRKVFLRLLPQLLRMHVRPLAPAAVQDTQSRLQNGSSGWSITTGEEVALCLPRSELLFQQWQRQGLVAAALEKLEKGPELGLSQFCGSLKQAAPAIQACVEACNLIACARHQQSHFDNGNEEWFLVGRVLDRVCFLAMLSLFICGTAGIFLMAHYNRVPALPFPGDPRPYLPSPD
Sequence (P11230 whole entry): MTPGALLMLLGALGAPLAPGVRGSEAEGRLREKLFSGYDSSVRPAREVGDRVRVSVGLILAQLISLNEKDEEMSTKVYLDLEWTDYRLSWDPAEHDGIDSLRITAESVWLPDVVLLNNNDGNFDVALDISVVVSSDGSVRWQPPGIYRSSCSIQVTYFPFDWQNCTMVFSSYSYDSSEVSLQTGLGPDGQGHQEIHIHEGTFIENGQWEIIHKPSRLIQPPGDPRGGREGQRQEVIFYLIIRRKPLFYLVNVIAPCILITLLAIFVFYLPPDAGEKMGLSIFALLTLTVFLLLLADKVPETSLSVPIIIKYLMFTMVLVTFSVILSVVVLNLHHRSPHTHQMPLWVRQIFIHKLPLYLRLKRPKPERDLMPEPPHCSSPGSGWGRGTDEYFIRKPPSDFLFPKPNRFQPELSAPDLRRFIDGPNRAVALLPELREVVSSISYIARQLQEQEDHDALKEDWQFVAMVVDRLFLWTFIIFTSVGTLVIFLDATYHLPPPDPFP
Sequence (Q07001 whole entry): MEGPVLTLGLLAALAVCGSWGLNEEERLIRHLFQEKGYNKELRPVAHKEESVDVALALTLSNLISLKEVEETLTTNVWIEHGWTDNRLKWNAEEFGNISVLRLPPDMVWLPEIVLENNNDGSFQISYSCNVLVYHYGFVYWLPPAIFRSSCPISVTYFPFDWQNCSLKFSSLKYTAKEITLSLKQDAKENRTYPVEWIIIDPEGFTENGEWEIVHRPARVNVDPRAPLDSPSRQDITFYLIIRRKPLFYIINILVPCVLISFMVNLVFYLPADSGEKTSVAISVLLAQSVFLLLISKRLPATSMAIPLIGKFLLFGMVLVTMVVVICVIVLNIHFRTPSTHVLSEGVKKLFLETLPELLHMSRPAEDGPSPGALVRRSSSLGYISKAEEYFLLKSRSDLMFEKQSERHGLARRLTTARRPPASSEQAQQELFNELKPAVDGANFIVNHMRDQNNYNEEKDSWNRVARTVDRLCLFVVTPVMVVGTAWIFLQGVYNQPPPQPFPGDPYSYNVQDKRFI
experiment-notes: Antagonist activity at human alpha-1-beta-1-gamma-delta nAChR expressed in human TE671 cells by calcium influx assay
pIC50: −log10 of the molar value.
Kind request: treat 5 as inclusive, so pIC50 at 5 or higher is 1 (yes), anything lower is 0 (no).

> print(dat)
                                   compound  class.label
1  C[C@H](OC(=O)N[C@@H]1CN2CCC1CC2)c1ccccc1F       0 (no)
2  CN1C(=O)[C@@H](CN2CCCCC2)C[C@H]1C#Cc1ccc2occc2c1 (relative stereo)       0 (no)
3  CN1C(=O)[C@@H](CN2CCCCC2)C[C@H]1C#Cc1ccc2c(c1)CCO2 (relative stereo)      1 (yes)
4  CN1C(=O)[C@@H](CN2CCCCC2)C[C@H]1C#Cc1ccc2c(ccn2C)c1 (relative stereo)      1 (yes)

====

experiment-notes: Octanol-water partition coefficient, log P of the compound
Type: physicochemical
quantity-kind: logP

> print(dat)
                                   molecule  observed.value
1  CN1C(=O)[C@@H](CN2CCCCC2)C[C@H]1C#Cc1ccccc1 (relative stereo)             3.7
2  CN1C(=O)[C@@H](CN2CCCCC2)C[C@H]1C#Cc1ccc2occc2c1 (relative stereo)             3.9

====

system-under-test: Muscarinic acetylcholine receptor M3 (Homo sapiens)
Sequence (P20309 whole entry): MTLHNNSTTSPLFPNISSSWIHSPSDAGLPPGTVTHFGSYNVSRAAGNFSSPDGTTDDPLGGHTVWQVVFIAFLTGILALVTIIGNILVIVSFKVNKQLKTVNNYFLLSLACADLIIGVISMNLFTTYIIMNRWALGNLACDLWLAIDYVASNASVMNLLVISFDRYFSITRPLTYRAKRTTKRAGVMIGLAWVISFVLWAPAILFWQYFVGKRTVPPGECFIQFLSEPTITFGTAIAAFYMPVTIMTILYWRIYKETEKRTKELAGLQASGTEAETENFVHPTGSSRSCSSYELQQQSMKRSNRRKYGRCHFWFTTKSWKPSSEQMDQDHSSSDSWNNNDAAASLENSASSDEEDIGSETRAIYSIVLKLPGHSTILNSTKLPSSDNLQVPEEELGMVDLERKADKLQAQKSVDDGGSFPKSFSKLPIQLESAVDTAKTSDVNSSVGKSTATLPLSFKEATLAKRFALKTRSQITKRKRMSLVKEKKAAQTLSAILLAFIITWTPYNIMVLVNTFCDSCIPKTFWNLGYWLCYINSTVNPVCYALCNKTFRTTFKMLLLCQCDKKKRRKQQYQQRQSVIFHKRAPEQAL
experiment-notes: Inhibition of human recombinant muscarinic M3 receptor
quantity-kind: IC50

> print(dat)
                                 smiles.str  quantity.kind  observed.value
1  C[C@H](OC(=O)N[C@@H]1CN2CCC1CC2)c1ccccc1F           IC50         > 10 µM

====

system-under-test: Muscarinic acetylcholine receptor M2 (Homo sapiens, UniProt P08172)
Sequence (P08172 whole entry): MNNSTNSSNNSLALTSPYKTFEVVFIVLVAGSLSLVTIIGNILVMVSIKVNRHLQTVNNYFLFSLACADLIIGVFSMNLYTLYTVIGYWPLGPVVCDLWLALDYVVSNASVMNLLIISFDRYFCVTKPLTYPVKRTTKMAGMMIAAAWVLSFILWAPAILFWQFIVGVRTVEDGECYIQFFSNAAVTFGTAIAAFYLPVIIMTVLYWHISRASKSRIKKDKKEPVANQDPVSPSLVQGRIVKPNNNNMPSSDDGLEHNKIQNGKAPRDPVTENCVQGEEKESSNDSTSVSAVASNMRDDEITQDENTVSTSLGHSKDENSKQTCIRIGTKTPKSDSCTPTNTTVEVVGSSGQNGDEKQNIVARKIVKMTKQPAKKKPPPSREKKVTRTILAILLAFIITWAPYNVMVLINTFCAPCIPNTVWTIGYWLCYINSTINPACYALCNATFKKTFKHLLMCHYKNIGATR
experiment-notes: Inhibition of human recombinant muscarinic M2 receptor
quantity-kind: IC50

> print(dat)
                                 smiles.str                         system.under.test  observed.value
1  C[C@H](OC(=O)N[C@@H]1CN2CCC1CC2)c1ccccc1F  Muscarinic acetylcholine receptor M2 (Homo sapiens, UniProt P08172)         > 10 µM

====

Parameter IC50: see the listing below.
system-under-test: Neuronal acetylcholine receptor; alpha4/beta2 (Homo sapiens, UniProt P17787+P43681)
Sequence (P17787 whole entry): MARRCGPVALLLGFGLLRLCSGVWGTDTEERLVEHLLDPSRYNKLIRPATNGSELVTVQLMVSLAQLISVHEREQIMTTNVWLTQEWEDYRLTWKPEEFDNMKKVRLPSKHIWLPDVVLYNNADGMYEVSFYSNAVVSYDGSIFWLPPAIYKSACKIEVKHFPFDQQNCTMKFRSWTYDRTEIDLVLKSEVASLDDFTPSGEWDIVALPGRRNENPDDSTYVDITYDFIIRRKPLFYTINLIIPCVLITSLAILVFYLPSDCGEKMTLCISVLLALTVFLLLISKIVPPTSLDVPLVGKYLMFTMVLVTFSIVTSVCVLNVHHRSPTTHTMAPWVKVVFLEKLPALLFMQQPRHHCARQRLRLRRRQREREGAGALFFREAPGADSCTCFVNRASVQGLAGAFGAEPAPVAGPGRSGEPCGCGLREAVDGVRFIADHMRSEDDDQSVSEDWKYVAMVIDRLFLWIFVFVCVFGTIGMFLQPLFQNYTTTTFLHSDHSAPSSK
Sequence (P43681 whole entry): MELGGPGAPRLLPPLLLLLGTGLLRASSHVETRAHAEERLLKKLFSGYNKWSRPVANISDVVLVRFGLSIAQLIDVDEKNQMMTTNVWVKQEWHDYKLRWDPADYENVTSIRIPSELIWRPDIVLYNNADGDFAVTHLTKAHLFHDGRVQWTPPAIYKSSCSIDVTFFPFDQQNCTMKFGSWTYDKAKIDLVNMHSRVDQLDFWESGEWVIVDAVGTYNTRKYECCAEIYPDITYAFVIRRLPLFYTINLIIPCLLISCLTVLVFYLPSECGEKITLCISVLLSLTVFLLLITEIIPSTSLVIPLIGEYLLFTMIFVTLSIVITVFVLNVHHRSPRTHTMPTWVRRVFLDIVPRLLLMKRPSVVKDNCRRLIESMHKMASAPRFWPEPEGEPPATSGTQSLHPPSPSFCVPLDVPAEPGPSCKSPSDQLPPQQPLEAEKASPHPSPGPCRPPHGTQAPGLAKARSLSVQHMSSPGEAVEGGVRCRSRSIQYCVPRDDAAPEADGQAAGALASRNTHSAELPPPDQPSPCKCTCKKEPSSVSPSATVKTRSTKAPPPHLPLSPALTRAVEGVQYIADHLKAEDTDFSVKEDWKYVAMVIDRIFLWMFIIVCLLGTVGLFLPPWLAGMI
experiment-notes: Antagonist activity at human alpha4beta2 nAChR expressed in HEK293 cells by calcium influx assay
quantity-kind: IC50 (µM)

> print(dat)
                                   compound  quantity.kind  observed.value
1  CN1C(=O)[C@@H](CN2CCCCC2)C[C@H]1C#Cc1ccc2occc2c1 (relative stereo)           IC50            5.01
2  C[C@H](OC(=O)N[C@@H]1CN2CCC1CC2)c1ccccc1F           IC50            25.1
3  CN1C(=O)[C@@H](CN2CCCCC2)C[C@H]1C#Cc1ccc2c(ccn2C)c1 (relative stereo)           IC50               2
4  CN1C(=O)[C@@H](CN2CCCCC2)C[C@H]1C#Cc1ccccc1 (relative stereo)           IC50            7.94
5  CN1C(=O)[C@@H](CN2CCCCC2)C[C@H]1C#Cc1ccc2c(c1)CCO2 (relative stereo)           IC50              10
